experiment: Inhibition of Bcr-Abl in mouse BA/F3 cells
Please provide measured pEC50 for the entries that follow.
Answers are plain numbers, as −log10 of the molar value.

• FC(F)(F)c1ccc(Nc2cc(-c3ccncc3)ncn2)cn1 = 5.91
• OCCn1ncc2c(Nc3ccc(OC(F)(F)F)cc3)ncnc21 = 6.60
• FC(F)(F)Oc1ccc(Nc2cc(-n3ccnc3)ncn2)cc1 = 5.78
• Cc1nn(C)c(C)c1-c1cc(Nc2ccc(OC(F)(F)F)cc2)ncn1 = 6.82
• FC(F)(F)Oc1ccc(Nc2cc(-c3cccc4[nH]ccc34)ncn2)cc1 = 6.85
• O=C(NCCN1CCOCC1)c1cccc(-c2cc(Nc3ccc(OC(F)(F)F)cc3)ncn2)c1 = 6.38

Now turn to the next compound.
Lookup: Look up pEC50: Nc1cccc(-c2cc(Nc3ccc(OC(F)(F)F)cc3)ncn2)c1
Found: 6.48

----------
Kindly state pEC50 for each of the entries shown.
assay: Inhibition of Bcr-Abl in mouse BA/F3 cells
One number for each entry, as −log10 of the molar value.

* FC(F)(F)Oc1ccc(Nc2ncnc3nn(Cc4cccnc4)cc23)cc1 | 5.77

Provide pEC50 for all items below, preserving their order.
1. FC(F)(F)Oc1ccc(Nc2ncnc3n[nH]cc23)cc1
2. CN1CCN(C(=O)c2cc3c(Nc4ccc(OC(F)(F)F)cc4)ncnc3s2)CC1

Found:
1. 5.89
2. 7.32

For each of the compounds below, note its pEC50.
1. COC(=O)c1cc2c(Nc3ccc(OC(F)(F)F)cc3)ncnc2s1
2. CCCn1ncc2c(Nc3ccc(OC(F)(F)F)cc3)ncnc21
3. FC(F)(F)Oc1ccc(Nc2ncnc3c2cnn3Cc2ccccc2)cc1
4. Cc1nc(C)c(Cn2ncc3c(Nc4ccc(OC(F)(F)F)cc4)ncnc32)s1
5. FC(F)(F)Oc1ccc(Nc2ncnc3c2ccn3CCN2CCOCC2)cc1
6. CCn1cc2c(Nc3ccc(OC(F)(F)F)cc3)ncnc2n1
7. CS(=O)(=O)Nc1ccc(-c2cc(Nc3ccc(OC(F)(F)F)cc3)ncn2)cc1

Found:
1. 5.25
2. 6.57
3. 6.40
4. 5.16
5. 6.42
6. 5.92
7. 7.40

Provide pEC50 for all items below, preserving their order.
1. FC(F)(F)Oc1ccc(Nc2cc(NCCN3CCOCC3)ncn2)cc1
2. CCNC(=O)c1cc2c(Nc3ccc(OC(F)(F)F)cc3)ncnc2s1

Found:
6.14
6.04

----------
test: Inhibition of Bcr-Abl in mouse BA/F3 cells
# if measured EC50 < 0.6 µM: YES  # else: NO

Check out these entries, answers already filled in.
- OCCn1cc2c(Nc3ccc(OC(F)(F)F)cc3)ncnc2n1: NO
- NC(=O)c1ccc(Cn2ncc3c(Nc4ccc(OC(F)(F)F)cc4)ncnc32)cc1: NO
- CS(=O)(=O)c1cccc(-c2cc(Nc3ccc(OC(F)(F)F)cc3)ncn2)c1: YES

Lookup: Below 0.6 µM on EC50? Entry FC(F)(F)Oc1ccc(Nc2ncnc3c2cnn3Cc2cccnc2)cc1
Found: NO

----------
test: Inhibition of Bcr-Abl in mouse BA/F3 cells
We label by threshold. Values of EC50 strictly beneath 400 nM are TRUE. Values of 400 nM and up are FALSE.

• FC(F)(F)Oc1ccc(Nc2ncnc3[nH]ccc23)cc1 = FALSE

Lookup: Regarding O=C(NCCO)c1cc2c(Nc3ccc(OC(F)(F)F)cc3)ncnc2s1 , kindly confirm whether its EC50 is beneath 400 nM.
Found: FALSE

Lookup: API: query returns whether the molecule falls strictly under 400 nM in EC50. Query: FC(F)(F)Oc1ccc(CNc2cc(NCCN3CCOCC3)ncn2)cc1
Found: FALSE

Lookup: Hi there! Is EC50 for CC(C)Cn1cc(-c2cc(Nc3ccc(OC(F)(F)F)cc3)ncn2)cn1 below 400 nM, do you know?
Found: TRUE

Lookup: Hi there! Is EC50 for CCn1ncc2c(Nc3ccc(OC(F)(F)F)cc3)ncnc21 below 400 nM, do you know?
Found: TRUE

Lookup: Is EC50 of FC(F)(F)Oc1ccc(Nc2cc(N3CCOCC3)ncn2)cc1 strictly below 400 nM?
Found: FALSE

Lookup: Does FC(F)(F)Oc1ccc(Nc2cc(NCCCN3CCOCC3)ncn2)cc1 have EC50 strictly under 400 nM?
Found: FALSE
